Molecular target: T1, monkey CD22 protein (ACROBiosystems, catalog number SI2-R52Ha) (monkey, UniProt F6W485 20-688)
T1 construct: commercial protein; also called monkey CD22-ECD; monkey CD22-ECD-His
T1 sequence: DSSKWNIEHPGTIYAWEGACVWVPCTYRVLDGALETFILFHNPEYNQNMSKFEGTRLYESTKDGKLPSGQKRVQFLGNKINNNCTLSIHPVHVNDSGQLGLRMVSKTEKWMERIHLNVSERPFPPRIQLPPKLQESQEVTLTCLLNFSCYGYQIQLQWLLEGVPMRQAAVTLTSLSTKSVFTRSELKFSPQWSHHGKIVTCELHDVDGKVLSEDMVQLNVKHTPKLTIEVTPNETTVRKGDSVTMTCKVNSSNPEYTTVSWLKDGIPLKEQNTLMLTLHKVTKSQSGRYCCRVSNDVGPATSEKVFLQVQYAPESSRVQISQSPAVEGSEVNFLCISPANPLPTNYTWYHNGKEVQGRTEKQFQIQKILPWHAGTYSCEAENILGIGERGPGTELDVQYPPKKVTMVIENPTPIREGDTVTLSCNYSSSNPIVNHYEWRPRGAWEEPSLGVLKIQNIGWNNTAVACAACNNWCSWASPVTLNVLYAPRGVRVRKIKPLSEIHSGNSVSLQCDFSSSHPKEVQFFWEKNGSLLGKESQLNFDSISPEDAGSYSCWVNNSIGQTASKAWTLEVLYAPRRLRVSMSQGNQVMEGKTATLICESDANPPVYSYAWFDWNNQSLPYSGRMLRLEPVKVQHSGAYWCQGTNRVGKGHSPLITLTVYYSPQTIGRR
Assay: ELISA, coated monkey CD22 protein, antibody 0.1 nM
MEASURED ATTRIBUTE: log10 OD450 (log10 of the value in OD450)

[[record]]
binder = "F1.7.6 (antibody, human IgG1, kappa, V domains shown, human-murine chimeric IgG1 kappa; VL name legible) VH: EIQLQQSGPELVKPGTSVKVSCKASGYDFTRYNMYWVKQSHGKSLEWIGYIDPYNGDTRYNQKFKGKATLTVDKSSSTAYMHLNSLTSEDSAVYYCEAIYYDMEGYALDYWGQGTSVTVSS VL: DIVMSQSPSSLAVSVGEKVTMSCKSSQSLLYSNNQKNYLAWYQQKPGQSPKKLIYWASTRESGVPDRLTGSGSGTDFTLTISSVTAEDLAVYYCQQFYSYPWTFGGGTKLEIKR"
reading = -1.15

[[record]]
binder = "F1.105.11 (antibody, human IgG1, kappa, V domains shown, human-murine chimeric IgG1 kappa; VL name legible) VH: EVQLQQSGPVLVKPGASVKMSCKASGYTFSDYFMNWVKQSHGKSLEWIGIINSYSGGTSYNQKFKGKATLTVDKSSSTAYMELNSLTSEDSAVYYCARWMDYWGQGTSVTVSS VL: DVQITQSPSYLAASPGETITINCRTSESISKHLAWYQEKPGKTNKLLIYSGSTLQSGIPSRFSGSGSGTDFTLTISSLEPEDFAMYYCQQHNEYPWTFGGGTKLEIKR"
reading = 0.12

[[record]]
binder = "F1.192.1 (antibody, human IgG1, kappa, V domains shown, human-murine chimeric IgG1 kappa) VH: AVQLQQSGVELVRPGASVKLSCTGSDFNIKEDYIHWVKQRPEQGLEWIGWIDPENGDTEYASKFQGKATITADTSSNTAYLQLSSLTSEDTAVYYCATYGSLDYWGQGTTLTVSS VL: DIKMTQSPSSMYAFLGERVTITCKASQGINSFLTWFQQKPGKSPKTLIYRANRLVDGVPSRFSGSGSGQDYSLTISSLEYEDVGIYYCLQYDEFPRTFGGGTKLEIKR"
reading = -0.28

[[record]]
binder = "F1.250.16 (antibody, human IgG1, kappa, V domains shown, human-murine chimeric IgG1 kappa; VL name legible) VH: QVQLQQSGAEQVKPGASVKMSCKASGYTFTTYPIEWMKQNHGESLDWIGNIHPYNDDTEYNEKFKGKATLTVEKSSNTVFLELSRLTSDDSAVYYCVRGDYYNSRYWYFDVWGTGTTVTVSS VL: DIVMTQSQKFMSTTVGDRVSITCKAGQNVRTAVAWYQQKPGQSPKLLIYSASTRYIGVPERFTGSGSGTDFTLTITNMQSEDLADYFCQQYSSFPLTFGTGTKLELKR"
reading = 0.45

[[record]]
binder = "F2.55.1 (antibody, human IgG1, lambda, V domains shown, human-murine chimeric IgG1 lambda; VL name legible) VH: QVTLKESGPGILQPSQTLSLTCSFSGFSLSTFPLGVGWIRQPSGKGLEWLAHVWWNDDDYYNPALKSRLTISKDTSNTRVFLSVASVDTAETATYYCARLNWDRWYFDVWGTGTTVTVSS VL: QLVLTQSSSASFSLGASAKLTCTLSSQHSAYTVEWYQQQPLKPPKYVMELKKDGSHSTGDGIPDRFSGSSSGADRYLSISNIQPEDEAIYICGVGDTVKEQFVFGGGTKVTVLG"
reading = 0.24

[[record]]
binder = "F1.62.10 (antibody, human IgG1, kappa, V domains shown, human-murine chimeric IgG1 kappa) VH: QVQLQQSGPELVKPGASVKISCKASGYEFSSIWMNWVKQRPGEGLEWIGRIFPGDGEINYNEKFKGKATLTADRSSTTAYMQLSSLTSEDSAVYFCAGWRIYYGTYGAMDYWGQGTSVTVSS VL: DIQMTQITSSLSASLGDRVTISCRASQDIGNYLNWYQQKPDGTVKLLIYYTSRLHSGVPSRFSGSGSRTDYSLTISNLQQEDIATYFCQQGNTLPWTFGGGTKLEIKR"
reading = -1.15

[[record]]
binder = "F1.60.9 (antibody, human IgG1, kappa, V domains shown, human-murine chimeric IgG1 kappa) VH: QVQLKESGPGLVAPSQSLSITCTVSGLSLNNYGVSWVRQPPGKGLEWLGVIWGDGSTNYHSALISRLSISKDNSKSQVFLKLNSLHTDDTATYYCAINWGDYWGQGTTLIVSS VL: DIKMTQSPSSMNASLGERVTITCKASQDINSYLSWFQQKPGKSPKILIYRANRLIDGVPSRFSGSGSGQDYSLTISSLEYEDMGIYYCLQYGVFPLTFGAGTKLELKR"
reading = -1.22

[[record]]
binder = "F2.173.9 (antibody, human IgG1, lambda, V domains shown, human-murine chimeric IgG1 lambda) VH: EVQLVESGGDLVKPGESLKLSCEASGFTFSNYAMSWVRQTPDRRLEWVATISSIGSFTYYSDSVKGRFTISRDNVKSTLHLQMNNLKSGDTAIYFCARLGVYFDSWGQGTTLTVSS VL: QLVLTQSSSASFSLGASAKLTCTLSSQHSTYTIEWYQQQPHKPPKFVMEIKKDGSHYTGDGIPDRFSGSSSGADRYLSISNIQPEDETIYICGVSDMIKDQFVYVFGGGTKVTVLG"
reading = 0.10

[[record]]
binder = "F2.104.10 (antibody, human IgG1, lambda, V domains shown, human-murine chimeric IgG1 lambda) VH: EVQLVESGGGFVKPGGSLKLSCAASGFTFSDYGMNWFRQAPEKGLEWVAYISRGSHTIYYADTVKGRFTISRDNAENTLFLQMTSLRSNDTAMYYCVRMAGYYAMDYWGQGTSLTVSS VL: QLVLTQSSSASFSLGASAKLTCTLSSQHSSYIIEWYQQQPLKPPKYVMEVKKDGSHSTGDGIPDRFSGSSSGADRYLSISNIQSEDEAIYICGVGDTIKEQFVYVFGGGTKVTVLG"
reading = -1.30

[[record]]
binder = "F2.180.16 (antibody, human IgG1, lambda, V domains shown, human-murine chimeric IgG1 lambda) VH: EVKLVESGGGLVLPGGSLKISCAASGFTFSDYYMYWIRQTPDKRLEWVAYISNTGYSTFYPDSVKGRFTVSRDNAKNTLYLQMSRLQSEDTAMYYCARHGILYAMDYWGQGTSVTVSS VL: QPVLTQSSSASFSLGASAKLTCTLSSQYSTYTIGWYQQQPLKPPKYVMELKHDGSRHTGDGIPDRFSGSSSGADRYLSISNIQPEDEATYICGVGDTIKEQFMYVFGGGTKVTVLG"
reading = -1.30

